Experiment: Pharmacokinetic study, plasma half life
Assay type: in vivo
Conditions: iv, 1 mg/kg, administered intravenously
quantity_measured: half-life

Prompt: I am curious: what half-life value has been reported for CCCCCCCCCCCCCC(=O)N[C@@H](CCCNC(=N)N)C(=O)N[C@@H](CCCNC(=N)N)C(=O)N[C@@H](Cc1c[nH]cn1)C(=O)N[C@@H](CO)C(=O)N[C@H](C(=O)N1CCC[C@H]1C(=O)N[C@@H](Cc1c[nH]cn1)C(=O)N1CCC[C@H]1C(=O)N[C@@H](CC(=O)O)C(=O)O)[C@@H](C)O ?
Response: 0.8 to 1.8 h

----------
Assay: Pharmacokinetic study, plasma half life
Format: in vivo
Conditions: sc, administered subcutaneously
quantity_measured: half-life

Prompt: I am curious: what half-life value has been reported for CCCCCCCCCCCCCC(=O)N[C@@H](CCCNC(=N)N)C(=O)N[C@@H](CCCNC(=N)N)C(=O)N[C@@H](Cc1c[nH]cn1)C(=O)N[C@@H](CO)C(=O)N[C@H](C(=O)N1CCC[C@H]1C(=O)N[C@@H](Cc1c[nH]cn1)C(=O)N1CCC[C@H]1C(=O)N[C@@H](CC(=O)O)C(=O)O)[C@@H](C)O ?
Response: 3 to 8 h
